Sourced from patent US11691981B2

System: P-glycoprotein (MDR1)
runDescription: P-glycoprotein substrate potential / permeability in MDR1-transfected MDCK cells
Type: in vitro ADME
measurementConditions: dog, pH 7.4; MDCK-MDR1, 1 μM, basolateral to apical, two hours
endpointLabel: Papp B→A at 2 h, 1 µM (×10⁻⁶ cm/s)

Task item: Supply Papp B→A at 2 h, 1 µM value. Item: CC(C)(O)c1ccc(Nc2cc(Oc3cc(C(F)(F)F)nn3C3CCOCC3)ccn2)cn1 [Compound 11]
Reply: 6.24

[1] CC(C)(O)c1cc(Nc2cc(Oc3cn(C4CC4)nc3C3CCOCC3)ccn2)ccn1 [Compound A, reference compound]
[2] CC(C)(O)c1cc(Nc2cc(Oc3cc(C(F)(F)F)nn3-c3ccccn3)ccn2)ccn1 [Compound 41]
[3] Cc1ccc(Oc2ccnc(Nc3ccnc(C(C)(C)O)c3)c2)c(C)n1 [Compound 57]
Task item: Sort low-to-high on Papp B→A at 2 h, 1 µM, please. A complete answer lists every label in the requested sequence.
Reply: 2, 3, 1
(2: 4.88 ×10⁻⁶ cm/s, 3: 18 ×10⁻⁶ cm/s, 1: 37.8 ×10⁻⁶ cm/s)

###

runDescription: Human hepatocyte clearance study
Type: in vitro ADME
measurementConditions: pooled cryopreserved human hepatocytes (suspension); human hepatocytes, scaling factor 2544.3; read-out: Human Scale-up Clint
endpointLabel: CLint scaled at 1 µM (mL/min/kg)

// worked examples, CLint scaled at 1 µM included
Task item: Supply CLint scaled at 1 µM value. Item: CC(C)(O)c1cc(Nc2cc(Oc3cn(C4CC4)nc3C3CCOCC3)ccn2)ccn1 [Compound A, reference compound]
Reply: 31.7

Task item: Supply CLint scaled at 1 µM value. Item: NS(=O)(=O)c1ccc(Nc2cc(Oc3cc(C(F)(F)F)nn3C3CCOCC3)ccn2)cc1
Reply: 19.6

[a] Cc1ccc(Oc2ccnc(Nc3ccnc(C(C)(C)O)c3)c2)c(C)n1
[b] NS(=O)(=O)c1ccc(Nc2cc(Oc3cc(C4CC4)nn3C3CC3)ccn2)cc1
Task item: Form field 'greater CLint scaled at 1 µM' accepts a or b ; which applies? Give the chosen item's label as your response.
Reply: b

[I] CC(C)(O)c1cc(Nc2cc(Oc3cccnc3C3CCOCC3)ccn2)ccn1
[II] Cn1nc(C(F)(F)F)cc1Oc1ccnc(Nc2ccnc(C(C)(C)O)c2)c1
Task item: Form field 'greater CLint scaled at 1 µM' accepts I or II ; which applies? Give the chosen item's label as your response.
Reply: I
(I: 17.4 mL/min/kg, II: 5.6 mL/min/kg)

###

testedSystem: TGFβR1 (Homo sapiens (Human))
Sequence (P36897 34-503): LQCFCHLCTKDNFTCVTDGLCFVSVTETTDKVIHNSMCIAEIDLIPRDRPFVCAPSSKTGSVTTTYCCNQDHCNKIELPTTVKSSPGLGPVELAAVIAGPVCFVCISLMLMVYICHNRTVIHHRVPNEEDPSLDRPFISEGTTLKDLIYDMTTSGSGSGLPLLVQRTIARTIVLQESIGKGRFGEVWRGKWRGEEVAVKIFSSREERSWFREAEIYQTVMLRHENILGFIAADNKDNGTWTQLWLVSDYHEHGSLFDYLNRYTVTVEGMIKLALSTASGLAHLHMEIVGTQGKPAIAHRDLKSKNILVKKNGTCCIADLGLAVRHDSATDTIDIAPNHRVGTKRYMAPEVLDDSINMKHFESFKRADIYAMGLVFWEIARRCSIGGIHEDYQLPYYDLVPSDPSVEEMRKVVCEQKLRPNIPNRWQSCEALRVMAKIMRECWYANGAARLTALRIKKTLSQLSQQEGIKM
endpointLabel: IC50 (nM)

Task item: Supply IC50 value. Item: NS(=O)(=O)c1ccc(Nc2cc(Oc3cc(C(F)(F)F)nn3C3CCOCC3)ccn2)cc1 [Compound 12]
Reply: 28

Task item: Supply IC50 value. Item: CC1(C)OC(=N)c2ccc(Nc3cc(Oc4cc(C5CC5)nn4C4CCOCC4)ccn3)cc21 [Compound 46]
Reply: 66

Task item: Supply IC50 value. Item: CC(C)(O)c1cc(Nc2cc(Oc3cc(C(F)(F)F)nn3-c3cncnc3)ccn2)ccn1 [Compound 42]
Reply: 263

Task item: Supply IC50 value. Item: CC(C)(O)c1cc(Nc2cc(Oc3cc(C(F)F)nn3C3CCOCC3)ccn2)ccn1 [Compound 8]
Reply: 173

Task item: Supply IC50 value. Item: CC(C)(O)c1cc(Nc2cc(Oc3ccc(C(F)(F)F)nc3C3CCOCC3)ccn2)ccn1 [Compound 60]
Reply: 50

[P] CC(C)(O)c1cc(Nc2cc(Oc3cc(C(F)(F)F)nn3[C@H]3C[C@H]4CC[C@@H](C3)O4)ccn2)ccn1 [Compound 50]
[Q] CC(C)(O)c1cc(Nc2cc(Oc3cn(C4CC4)nc3C(=O)Nc3ccccc3F)ccn2)ccn1 [Compound 80]
Task item: Among P and Q , whose measured IC50 is the smaller figure? Give the chosen item's label as your response.
Reply: Q
(Q: 57 nM, P: 113 nM)
